Where these numbers come from: patent US20160362487A1

Molecular target: T1, cynomolgus monkey IL-33 expressed with a C-terminal hexahistidine tag (cynomolgus monkey)
T1 construct: also called MfIL-33-6His; Mf-IL-33-6His
T1 chain: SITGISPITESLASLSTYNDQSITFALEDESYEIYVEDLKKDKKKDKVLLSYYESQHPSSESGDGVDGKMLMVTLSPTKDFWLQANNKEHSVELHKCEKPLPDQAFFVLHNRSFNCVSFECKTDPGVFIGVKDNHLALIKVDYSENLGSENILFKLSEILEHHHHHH
Assay: SPR 25C, pH6.0 chase, mAb captured
The entries below are paired with their reported t½.
API: value field is a number in min; no unit string.

H4H9672P (antibody, human IgG4, V domains shown, Human IgG4 Fc (H4H)) VH: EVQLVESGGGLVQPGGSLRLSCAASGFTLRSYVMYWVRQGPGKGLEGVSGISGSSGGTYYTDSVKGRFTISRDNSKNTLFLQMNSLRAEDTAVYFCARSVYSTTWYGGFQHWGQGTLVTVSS VL: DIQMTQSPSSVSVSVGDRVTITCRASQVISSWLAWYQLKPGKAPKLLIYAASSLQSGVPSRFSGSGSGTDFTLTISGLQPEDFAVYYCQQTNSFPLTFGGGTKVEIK :: 4

Proceeding to the next binder to report its t½.
Task: Looking for the measured t½ of H1M9559N (antibody, mouse IgG1, V domains shown, Human variable domains, mouse IgG1 Fc (H1M)) VH: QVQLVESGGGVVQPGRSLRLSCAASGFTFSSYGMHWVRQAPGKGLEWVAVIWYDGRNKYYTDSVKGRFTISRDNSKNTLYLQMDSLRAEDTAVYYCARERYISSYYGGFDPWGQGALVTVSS VL: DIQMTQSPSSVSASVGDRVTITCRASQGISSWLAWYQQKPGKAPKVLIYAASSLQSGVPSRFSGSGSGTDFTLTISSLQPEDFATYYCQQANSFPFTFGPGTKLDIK , can you help?
Result: 8
